Data origin, for the record: patent US20140288040A1

Target System: HCV NS3 protease (full length NS34a) (Hepatitis C virus genotype 1b)
Construct: The protease activity of the full length NS34a was measured using a FRET-based assay; made in house
Sequence (P26663 1658-1711): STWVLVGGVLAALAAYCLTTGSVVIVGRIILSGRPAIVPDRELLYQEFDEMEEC
Sequence (P26663 1027-1657): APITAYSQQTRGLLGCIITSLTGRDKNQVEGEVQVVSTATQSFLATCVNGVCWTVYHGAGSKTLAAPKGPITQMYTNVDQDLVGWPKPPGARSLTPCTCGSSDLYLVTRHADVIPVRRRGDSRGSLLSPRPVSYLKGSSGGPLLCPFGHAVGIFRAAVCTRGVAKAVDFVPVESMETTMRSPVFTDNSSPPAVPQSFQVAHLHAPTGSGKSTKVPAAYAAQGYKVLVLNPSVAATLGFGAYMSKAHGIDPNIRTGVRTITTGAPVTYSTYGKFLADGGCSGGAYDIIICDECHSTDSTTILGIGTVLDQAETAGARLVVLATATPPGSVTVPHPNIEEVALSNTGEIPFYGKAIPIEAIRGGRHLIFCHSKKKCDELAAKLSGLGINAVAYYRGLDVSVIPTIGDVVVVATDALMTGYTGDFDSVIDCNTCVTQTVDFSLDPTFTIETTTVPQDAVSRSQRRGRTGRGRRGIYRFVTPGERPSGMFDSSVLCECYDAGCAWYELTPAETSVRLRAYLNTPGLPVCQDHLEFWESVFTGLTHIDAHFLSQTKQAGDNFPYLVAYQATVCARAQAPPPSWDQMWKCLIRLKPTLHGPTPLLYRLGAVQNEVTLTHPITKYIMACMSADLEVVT
Protocol Notes: HCV NS3 protease assay (FRET, full length NS34a)
Format: biochemical
Condition Set: read-out: Activity % inhibition @ 0.03 μM; 0.03 μM compound
Reported inhibition at 0.03 µM is given for each of the following compounds.
Report as a plain number; the unit % is understood.

Some compounds with known inhibition at 0.03 µM results, for comparison:
>>> value_measured("CC[C@@H](N[C@@H](C)CC(=O)NC1CNC1)c1ccc(Cl)c(Oc2ccccc2)c1F")
57
>>> value_measured("C[C@@H](CC(=O)NCCN)NCc1ccc(Cl)c(Oc2ccccc2)c1F")
57

Input line: // fetch HCV NS3 protease (full length NS34a) (Hepatitis C virus genotype 1b) inhibition at 0.03 µM for `CC[C@@H](N[C@@H](C)C(=O)NCCCN)c1ccc(Cl)c(Oc2ccccc2)c1F`
Output line: 49.5

Input line: Notebook entry, HCV NS3 protease (full length NS34a) (Hepatitis C virus genotype 1b) assay: inhibition at 0.03 µM of `CC[C@@H](N[C@H](C)CC(=O)NCCN)c1ccc(Cl)c(Oc2ccc(N)c(C)c2)c1F` = ?
Output line: 41

Input line: Recall the recorded inhibition at 0.03 µM for CC[C@@H](N[C@@H](C)CC(=O)NCCN)c1ccc(Cl)c(Oc2ccc(N)c(C)c2)c1F [Example 238B] with HCV NS3 protease (full length NS34a) (Hepatitis C virus genotype 1b) and state it.
Output line: 58
